The origin of these recorded values is patent US20250186408A1.

Measured On: UniProt:P29274
Sequence (P29274 whole entry): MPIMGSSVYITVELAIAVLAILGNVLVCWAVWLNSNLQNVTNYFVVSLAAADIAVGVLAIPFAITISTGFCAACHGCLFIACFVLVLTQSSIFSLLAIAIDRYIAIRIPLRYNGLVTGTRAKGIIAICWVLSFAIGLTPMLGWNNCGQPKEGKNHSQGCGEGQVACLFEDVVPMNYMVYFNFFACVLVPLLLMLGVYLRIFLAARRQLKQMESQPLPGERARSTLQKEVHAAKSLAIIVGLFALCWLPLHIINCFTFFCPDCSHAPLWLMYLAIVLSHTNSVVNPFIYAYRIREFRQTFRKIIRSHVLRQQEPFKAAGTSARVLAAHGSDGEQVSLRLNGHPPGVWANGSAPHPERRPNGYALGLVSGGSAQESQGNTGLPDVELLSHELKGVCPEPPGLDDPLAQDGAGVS
Assay Method Text: Calcium Flux ADORA2A Agonist
Experimental Setup: Calcium Flux ADORA2A Agonist; read-out: RC50, result type EC50
pEC50: −log10 of the molar value.
compounds and their reported pEC50

{"Compound": "CC(C)(C)c1ccc(C#CC(O)c2ccccc2)cc1 (racemic)", "pEC50": "< 5.00"}
{"Compound": "Clc1cccc(C#Cc2n[nH]c3ncccc23)c1", "pEC50": "< 5.00"}

----------
Measured On: ADRB1 (Homo sapiens)
Sequence (P08588 whole entry): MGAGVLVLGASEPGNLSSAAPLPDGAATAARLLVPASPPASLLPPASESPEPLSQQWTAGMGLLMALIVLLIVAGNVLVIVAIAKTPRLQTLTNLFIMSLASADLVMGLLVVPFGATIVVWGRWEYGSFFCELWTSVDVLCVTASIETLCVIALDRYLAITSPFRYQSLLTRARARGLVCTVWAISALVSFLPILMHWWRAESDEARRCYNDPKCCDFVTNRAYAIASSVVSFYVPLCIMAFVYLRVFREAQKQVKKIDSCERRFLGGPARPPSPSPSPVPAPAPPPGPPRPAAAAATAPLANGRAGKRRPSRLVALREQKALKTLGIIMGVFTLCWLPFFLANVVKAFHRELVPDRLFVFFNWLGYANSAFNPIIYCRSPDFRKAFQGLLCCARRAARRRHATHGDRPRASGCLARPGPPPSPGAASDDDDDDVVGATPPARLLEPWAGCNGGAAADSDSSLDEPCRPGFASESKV
Assay Method Text: cAMP ADRB1 Agonist
Assay type: cell-based
Experimental Setup: cAMP ADRB1 Agonist; read-out: RC50, result type EC50
Description: cAMP Hunter cell lines were expanded from freezer stocks. […] For Gi agonist determination, cells were incubated with sample in the presence of EC80 forskolin to induce response. For both conditions, media was aspirated from cells and replaced with 15 μL 2:1 HBSS/10 mM HEPES:cAMP XS+ Ab reagent. […] 5 μL of 4× sample was added to cells and incubated at 37° C. or room temperature (RT) for 30 or 60 min. […] Compound activity was analyzed using CBIS data analysis suite (ChemInnovation, CA).
pEC50: −log10 of the molar value.

{"Molecule": "Clc1cccc(C#Cc2n[nH]c3ncccc23)c1 [Compound 10.1]", "Measured On": "ADRB1 (Homo sapiens)", "pEC50": "< 5.00"}
